System: HS 578T breast
run.description: NCI tumour cell line growth inhibition, 48 h; in the data active means GI50 below about 0.43 µM; inactive means the rest
Outcomes you can answer with include only these: true (1) = active, false (0) = inactive

Look over these answered cases.
query: Which outcome was assigned to CCOC(=O)N1CCN(/[N+]([O-])=N/Oc2ccc([N+](=O)[O-])cc2[N+](=O)[O-])CC1 in this test?
result: false (0)

query: Outcome logged for CCOC(=O)Nc1ccc2c(c1)/C(=N\NC(N)=S)c1ccccc1-2 in this assay:
result: false (0)

Here is another compound to look at.
query: Could you please tell me the result logged for COc1ccc(-c2nn(-c3cccc(Cl)c3)cc2-c2cc(-c3cccs3)[nH]c(=S)n2)cc1 in this assay?
result: false (0)
